Below, each entry is listed alongside its reported ka.
Biological target: T1, human DLL3 (Homo sapiens, UniProt Q9NYJ7)
T1 construct: purchased ACRO DLL3-H52H4
T1 sequence (Q9NYJ7 27-492 limits assumed): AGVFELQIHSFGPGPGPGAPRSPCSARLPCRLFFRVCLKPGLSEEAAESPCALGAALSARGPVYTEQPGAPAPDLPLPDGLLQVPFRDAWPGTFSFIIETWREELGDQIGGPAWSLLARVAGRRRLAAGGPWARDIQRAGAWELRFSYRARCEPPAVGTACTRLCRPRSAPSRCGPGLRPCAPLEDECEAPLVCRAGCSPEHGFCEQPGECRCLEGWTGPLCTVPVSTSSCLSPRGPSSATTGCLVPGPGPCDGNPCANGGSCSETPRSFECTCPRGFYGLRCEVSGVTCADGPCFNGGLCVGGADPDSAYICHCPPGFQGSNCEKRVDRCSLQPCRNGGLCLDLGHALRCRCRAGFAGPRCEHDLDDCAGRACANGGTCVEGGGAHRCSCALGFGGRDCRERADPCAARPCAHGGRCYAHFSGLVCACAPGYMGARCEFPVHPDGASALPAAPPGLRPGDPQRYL
Test: Biacore antibody affinity assay, human DLL3
Type: binding
Please give a number only; it is taken to be in M⁻¹ s⁻¹.

[
  {
    "molecule": "hAb6L3H3: humanized antibody of mAb6: hAb6VH3 (SEQ ID NO: 34) + hAb6VL3 (SEQ ID NO: 47), constant regions SEQ ID NO: 28/29 (antibody, V domains shown, constant regions SEQ ID 28/29; hAb6 VH3; hAb6 VL3) VH: EVQLVQSGAEVKKPGASVKVSCKASGYTFTDYYMNWVRQAPGQRLEWIGIINPYSGVTIYNHKFKGRATLTVDKSANTAYMELSSLRSEDTAVYYCARQDSLLDYAMDYWGQGTTVTVSS VL: DIQMTQSPSSLSASVGDRVTITCHASQGISGNMGWLQQKPGKSFKGLIYHGANLEDGVPSRFSGSGSGADYTLTISSLQPEDFATYYCVQYAQFPYTFGGGTKVEIK",
    "experimental readout": "ka",
    "value observed": 718000
  }
]

// below: ka requested for another molecule
Consider the molecule shown here: hAb6L4H11: humanized antibody of mAb6: hAb6VH11 (SEQ ID NO: 42) + hAb6VL4 (SEQ ID NO: 48), constant regions SEQ ID NO: 28/29 (antibody, V domains shown, constant regions SEQ ID 28/29; hAb6VH11; hAb6 VL4) VH: EVQLVQSGSELKKPGASVKVSCKASGYTFTDYYMNWVKQAPGQGLEWMGIINPYSGVTIYNHKFKGRFVLSVDKSSNTAYLQISSLKAEDTAVYYCARQDSLLDYAMDYWGQGTTVTVSS VL: DIQMTQSPSSLSASVGDRVTITCHASQGISGNMGWLQQKPGKAPKGLIYHGANLEDGVPSRFSGSGSGADYTLTISSLQPEDFADYYCVQYAQFPYTFGGGTKVEIK What is its recorded ka?
2.14e+06
